ASSAY NOTES: Pharmacokinetic profile, compound levels in the vena cava
Assay type: in vivo, C57BL/6 Mouse
EXPERIMENTAL CONTEXT: male, C57BL/6, mouse, vena cava serum; po 10 mg/kg in 0.5% CMC suspension, mesylate salt, serum
QUANTITY MEASURED: AUC (ng·h/mL)
Value expressed in ng·h/mL; do not type the unit.

Q: State its AUC: "O[C@H]1CC[C@@H](Nc2nccc(-c3nccc(C#Cc4ccc5[nH]ncc5c4)n3)n2)CC1"
Ans: 145

====

Give measured Kd for each item. Keep answers brief.
ASSAYED TARGET: ROCK2 (Homo sapiens, UniProt O75116)
Construct: T7 phage fusion (kinase-tagged phage) or DNA tag for qPCR detection
Sequence (O75116 whole entry, the tested form may be a part): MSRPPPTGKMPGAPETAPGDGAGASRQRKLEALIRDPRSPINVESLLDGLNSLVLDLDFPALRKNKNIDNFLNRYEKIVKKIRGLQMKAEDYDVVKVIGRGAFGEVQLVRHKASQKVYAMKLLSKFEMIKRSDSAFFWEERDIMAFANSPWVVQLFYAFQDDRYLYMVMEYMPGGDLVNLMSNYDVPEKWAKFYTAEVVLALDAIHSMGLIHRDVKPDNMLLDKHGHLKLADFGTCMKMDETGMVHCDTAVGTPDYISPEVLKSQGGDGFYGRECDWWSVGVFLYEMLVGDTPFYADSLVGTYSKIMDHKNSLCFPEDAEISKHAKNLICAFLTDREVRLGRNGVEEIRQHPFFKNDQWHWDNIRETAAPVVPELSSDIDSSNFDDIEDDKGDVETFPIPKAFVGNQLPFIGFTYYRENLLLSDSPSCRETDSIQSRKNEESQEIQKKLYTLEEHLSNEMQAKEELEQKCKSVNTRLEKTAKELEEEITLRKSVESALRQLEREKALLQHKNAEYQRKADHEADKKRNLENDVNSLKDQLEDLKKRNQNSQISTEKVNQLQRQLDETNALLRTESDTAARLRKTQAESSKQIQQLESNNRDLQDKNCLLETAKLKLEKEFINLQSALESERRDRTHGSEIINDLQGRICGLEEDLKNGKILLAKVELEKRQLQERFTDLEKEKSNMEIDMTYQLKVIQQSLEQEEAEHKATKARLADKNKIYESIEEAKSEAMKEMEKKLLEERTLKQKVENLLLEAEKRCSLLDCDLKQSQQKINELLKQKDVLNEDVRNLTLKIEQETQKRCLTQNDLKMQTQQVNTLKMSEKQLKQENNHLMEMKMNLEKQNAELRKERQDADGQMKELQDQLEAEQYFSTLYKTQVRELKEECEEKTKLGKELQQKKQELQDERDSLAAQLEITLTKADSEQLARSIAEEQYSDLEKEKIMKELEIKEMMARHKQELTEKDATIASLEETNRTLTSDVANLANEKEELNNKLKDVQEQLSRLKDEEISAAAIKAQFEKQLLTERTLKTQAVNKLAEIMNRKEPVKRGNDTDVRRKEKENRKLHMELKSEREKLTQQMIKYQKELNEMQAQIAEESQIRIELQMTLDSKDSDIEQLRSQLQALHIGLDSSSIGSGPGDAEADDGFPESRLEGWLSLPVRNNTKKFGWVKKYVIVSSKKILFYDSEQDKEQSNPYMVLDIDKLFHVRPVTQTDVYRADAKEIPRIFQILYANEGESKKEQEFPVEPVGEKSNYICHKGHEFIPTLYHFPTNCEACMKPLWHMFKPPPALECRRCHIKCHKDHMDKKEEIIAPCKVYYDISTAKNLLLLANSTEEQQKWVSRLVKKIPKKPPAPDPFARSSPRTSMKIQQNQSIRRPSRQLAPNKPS
ASSAY NOTES: ROCK2 kinase binding affinity, DiscoverX KINOMEscan KdELECT
EXPERIMENTAL CONTEXT: KINOMEscan KdELECT, 11-point 3-fold dilution; read-out: Kd (μM) ROCK2

Q: For ROCK2 (Homo sapiens, UniProt O75116), give the measured Kd of the entry "O=C(CNc1nccc(-c2nccc(C#Cc3ccc4[nH]nc(F)c4c3)n2)n1)N1CCOCC1"
Ans: 0.01 to 0.099 µM

Q: For ROCK2 (Homo sapiens, UniProt O75116), give the measured Kd of the entry "Fc1ccnc(CNc2nccc(-c3nccc(C#Cc4ccc5[nH]ncc5c4)n3)n2)c1"
Ans: 0.01 to 0.099 µM

Q: For ROCK2 (Homo sapiens, UniProt O75116), give the measured Kd of the entry "COC(=O)[C@H]1CC[C@@H](Nc2nccc(-c3nccc(C#Cc4ccc5[nH]ncc5c4)n3)n2)CC1"
Ans: < 0.01 µM

Q: For ROCK2 (Homo sapiens, UniProt O75116), give the measured Kd of the entry "O[C@@H]1CC[C@H](Nc2nccc(-c3nccc(C#Cc4ccc5[nH]ncc5c4)n3)n2)C1"
Ans: < 0.01 µM

Q: For ROCK2 (Homo sapiens, UniProt O75116), give the measured Kd of the entry "Fc1ncccc1CNc1nccc(-c2nccc(C#Cc3ccc4[nH]nc(F)c4c3)n2)n1"
Ans: 0.01 to 0.099 µM

Q: For ROCK2 (Homo sapiens, UniProt O75116), give the measured Kd of the entry "Fc1cccc(CNc2nccc(-c3nccc(C#Cc4ccc5[nH]ncc5c4)n3)n2)n1"
Ans: 0.01 to 0.099 µM

Q: For ROCK2 (Homo sapiens, UniProt O75116), give the measured Kd of the entry "Fc1ccc(CNc2nccc(-c3nccc(C#Cc4ccc5[nH]ncc5c4)n3)n2)nc1"
Ans: < 0.01 µM

Q: For ROCK2 (Homo sapiens, UniProt O75116), give the measured Kd of the entry "C(#Cc1ccnc(-c2ccnc(NC[C@H]3CCCO3)n2)n1)c1ccc2[nH]ncc2c1"
Ans: < 0.01 µM

====

ASSAYED TARGET: ROCK2 (Homo sapiens, UniProt O75116)
Construct: T7 phage fusion (kinase-tagged phage) or DNA tag for qPCR detection
ASSAY NOTES: ROCK2 kinase binding affinity, DiscoverX KINOMEscan KdELECT
EXPERIMENTAL CONTEXT: KINOMEscan KdELECT, 11-point 3-fold dilution; read-out: Kd (μM) ROCK2
QUANTITY MEASURED: Kd

Q: State its Kd: "O=S1(=O)CC[C@H](Nc2nccc(-c3nccc(C#Cc4ccc5[nH]ncc5c4)n3)n2)C1"
Ans: < 0.01 µM

Q: State its Kd: "CNC(=O)CNc1nccc(-c2nccc(C#Cc3ccc4[nH]ncc4c3)n2)n1"
Ans: 0.01 to 0.099 µM

Q: State its Kd: "Fc1nccc(Cl)c1CNc1nccc(-c2nccc(C#Cc3ccc4[nH]ncc4c3)n2)n1"
Ans: 0.01 to 0.099 µM

Q: State its Kd: "O[C@H]1CC[C@@H](Nc2nccc(-c3nccc(C#Cc4ccc5cncn5c4)n3)n2)CC1"
Ans: 0.01 to 0.099 µM

Q: State its Kd: "C(#Cc1ccnc(-c2ccnc(NCc3ncc[nH]3)n2)n1)c1ccc2[nH]ncc2c1"
Ans: 0.01 to 0.099 µM

Q: State its Kd: "C(#Cc1ccnc(-c2ccnc(NC[C@@H]3CCOC3)n2)n1)c1ccc2[nH]ncc2c1"
Ans: < 0.01 µM

Q: State its Kd: "C(#Cc1ccnc(-c2ccnc(NCc3cc4ccccc4cn3)n2)n1)c1ccc2[nH]ncc2c1"
Ans: 0.01 to 0.099 µM

Q: State its Kd: "Fc1ccc(CNc2nccc(-c3nccc(C#Cc4ccc5[nH]ncc5c4)n3)n2)cc1"
Ans: 0.01 to 0.099 µM
